- procedure_text: in vivo
- Set-up: species or system rats
- reported_conditions: rat, in vivo, po, rats, p.o., strongest effect within first 6 hours; read-out: Catalep. (catalepsy wire mesh, rat, max, ED50)
Returns: string. Value is fulfilled if measured ED50 is below 8 mg/kg, and not fulfilled if it is greater than or equal to it.

| molecule | class_label |
| --- | --- |
| CN1CCN(C2CC(c3ccc(F)cc3)c3ccc(C(F)(F)F)cc32)CC1 (stereo not shown) | fulfilled |
| CN1CCN(C2CC(c3ccc(F)cc3)c3cc(F)ccc32)CC1 (stereo not shown) | not fulfilled |
| Cc1ccc2c(c1)[C@H](N1CCN(CCO)CC1)C[C@H]2c1ccc(F)cc1 (relative stereo) | fulfilled |
| CC(C)N1CCN(C2CC(c3ccc(F)cc3)c3ccc(Cl)cc32)CC1 (stereo not shown) | fulfilled |
| O=C1NCCN1CCN1CCN(C2CC(c3ccc(F)cc3)c3ccc(F)cc32)CC1 (stereo not shown) | not fulfilled |
| OCC(O)CN1CCN(C2CC(c3ccc(F)cc3)c3ccc(F)cc32)CC1 (single isomer, unassigned) | not fulfilled |
| CSc1ccc2c(c1)C(N1CCN(C(C)C)CC1)CC2c1ccc(F)cc1 (stereo not shown) | fulfilled |
| OCCN1CCN([C@@H]2C[C@@H](c3ccccc3)c3ccc(C(F)(F)F)cc32)CC1 (relative stereo) | fulfilled |
| CN(C)CCCN1c2ccccc2Sc2ccc(Cl)cc21 [chlorpromazine, reference compound] | not fulfilled |

Values from patent US4443448A
